Origin of measurements: PubChem BioAssay (NCI)

Test system: MCF7 breast
assayDetails: NCI-60 one-dose screen, 48 h (100 = growth as untreated, 0 = no growth, -100 = all killed)
measurementContext: 10 µM unless noted
The panel holds about 83,000 compounds, 20% with a hit somewhere; the sample as a whole holds those more often. The source made the active and inactive calls. The calls were made as follows: active = growth percent below 10; inactive = the rest.
assayEndpoint: growth

Lookup result for COc1cc2c(cc1O)CC[C@@H]1C2CC[C@@]2(C)C1CC[C@@H]2O (stereo partly specified) ; measured growth: 16.4% (inactive)

So for c1ccc(Cc2ccccc2)cc1 , the logged growth turned out to be 113% (inactive)

The reported growth of the compound CCC/C=C(\C)C(C)(C#N)C(=O)OCC (stereo unspecified) was 97.1% (inactive)

For this compound ( CC(=O)c1ccc2c(ccc3ccccc32)c1 ), measured growth is 96.3% (inactive)

Given item COC(=O)Nc1nc2ccc(C(=O)c3ccc(F)cc3)cc2[nH]1 , the value recorded as its growth is 15.6% (inactive)

Could you now look at the following compound, please?
Entry c1csc(-c2cc(-c3cc(-c4cccs4)[nH]n3)n[nH]2)c1 , growth reported as 75.5% (inactive)
